For each entry below, report its Inh (PKA) value.
system: PRKACA-PRKAR2A interaction (SmBiT-PRKACA / LgBiT-PRKAR2A), protein kinase A; design: NanoLuc complementation counter-screen in cell extract, PRKACA with PRKAR2A, loss of luminescence, detects NanoLuc interference; conditions: counter-screen for NanoLuc interference; 0.5 h, 20 µM; inhibitor
Where a name gives a salt, the structure may show the parent alone.
One number for each entry, in %.

Worked examples follow.
>  <compound>
Cc1cccc(Nc2nc(-c3ccncc3)cs2)c1

>  <Inh (PKA) (%)>
25.96

$$$$
>  <compound>
CCN(CC)Cc1ccc2cc(COC(=O)Nc3ccc(C(=O)NO)cc3)ccc2c1

>  <Inh (PKA) (%)>
1.847

$$$$
>  <compound>
O=C(NCC(=O)N1CCCC1)Nc1ccc2cnccc2c1

>  <Inh (PKA) (%)>
9.797

$$$$
>  <compound>
CN(C)Cc1cccc(N/C(=C2\C(=O)Nc3cc(C(N)=O)ccc32)c2ccccc2)c1

>  <Inh (PKA) (%)>
13.5

$$$$
>  <compound>
C[C@H](CS)C(=O)N1CCC[C@H]1C(=O)O

>  <Inh (PKA) (%)>
5.226

$$$$
>  <compound>
N#Cc1c(Oc2ccc(F)c(NC(=O)Cc3cccc(C(F)(F)F)c3)c2)ccc2nc(NC(=O)C3CC3)sc12

>  <Inh (PKA) (%)>
4.577

$$$$
>  <compound>
CC(C)(C)c1cc(C(C)(C)C)c(NC(=O)c2c[nH]c3ccccc3c2=O)cc1O

>  <Inh (PKA) (%)>
12.69

$$$$
>  <compound>
CN(C)C(=N)NC(=N)N [UM0142397:01, Metformin HCl]

>  <Inh (PKA) (%)>
1.975

$$$$

Give Inh (PKA) for all compounds that follow.
1. C#C[C@]1(O)C=C[C@H]2[C@@H]3CCC4=CC(=O)CC[C@@H]4[C@H]3CC[C@@]21CC
2. CC(C)(C)C(=O)Oc1ccc(S(=O)(=O)Nc2ccccc2C(=O)NCC(=O)O)cc1
3. O=CC[C@@H](O)[C@H](O)[C@H](O)CO
4. CC(C)N(CCCNC(=O)Nc1ccc(C(C)(C)C)cc1)C[C@H]1O[C@@H](n2ccc3c(N)ncnc32)[C@H](O)[C@@H]1O
5. CC(C)c1cc(CNc2nc(Nc3cc(C4CC4)[nH]n3)cc(N3CCN(C)CC3)n2)on1
6. C=CC(=O)N1CCC[C@@H](n2nc(-c3ccc(Oc4ccccc4)cc3)c3c(N)ncnc32)C1
7. O=C(O)[C@@]1(CCCCCCOc2ccc(Cl)cc2)CO1 [UM0142794:01, (R)-(+)-Etomoxir sodium salt]

## Result
1. 7.119
2. -0.1491
3. 1.529
4. 1.222
5. 43.07
6. 23.88
7. 1.565

---

For each entry below, report its Inhibition percent value.
biological target: MeCP2-TBL1 interaction (MeCP2-SmBiT / TBL1-LgBiT) (Mus musculus, UniProt Q9QXE7); construct: expressed in transfected cells; crude lysate used as a cell-free assay; assay: MeCP2-TBL1 NanoLuc luciferase complementation assay (cell-free, extracts of transfected HEK293 cells);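 also: each compound tested at 20 µM final concentration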; assay type: binding, human; conditions: primary screen of the Asinex library, sheet "Sargen output Asinex library", one well per compound, Batch Ref. 1
Sequence (Q9QXE7 166-527): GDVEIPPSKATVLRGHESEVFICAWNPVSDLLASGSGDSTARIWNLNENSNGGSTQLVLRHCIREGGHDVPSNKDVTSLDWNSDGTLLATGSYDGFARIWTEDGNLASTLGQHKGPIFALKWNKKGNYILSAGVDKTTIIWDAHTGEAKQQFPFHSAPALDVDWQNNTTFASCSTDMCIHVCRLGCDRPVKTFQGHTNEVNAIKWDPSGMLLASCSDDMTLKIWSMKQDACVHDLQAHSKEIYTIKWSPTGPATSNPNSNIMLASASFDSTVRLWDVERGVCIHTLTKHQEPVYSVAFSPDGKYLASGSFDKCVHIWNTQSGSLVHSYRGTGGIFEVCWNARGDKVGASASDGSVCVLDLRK
Give bare numbers, in %.

>  <compound>
COc1ccc([C@@H]2C[C@]3(C)NC(=O)CCC[C@@H]3N2CC(=O)Nc2ccc(C)c(F)c2)cc1 [BDH_33625783]

>  <units-text>
%

>  <Inhibition percent>
2.77

$$$$
>  <compound>
Cc1noc(C)c1COc1cccc(C(=O)N2CCCC(Cc3cccc4cnccc34)CC2)c1 (stereo not drawn) [BDH_32354458]

>  <units-text>
%

>  <Inhibition percent>
1.54

$$$$
>  <compound>
COCCc1ncc(CN2CCCC2c2cc(Cc3cccc(OC)c3)cc(C)n2)cn1 (stereo not drawn) [BDE_25403133]

>  <units-text>
%

>  <Inhibition percent>
-4.16

$$$$
>  <compound>
CN(CCOc1ccccc1)C(=O)c1c(O)ccc2c1O[C@@H]1C[C@H]3C[C@H](C3(C)C)[C@]1(O)[C@H]2O [BDG_33899827]

>  <units-text>
%

>  <Inhibition percent>
2.70

$$$$
>  <compound>
C[C@@]12C[C@H](c3ccccc3)N(C(=O)CCc3c[nH]c4ccccc34)[C@@H]1CCC[C@@H](O)[C@H]2O [BDH_33903568]

>  <units-text>
%

>  <Inhibition percent>
3.00

$$$$
>  <compound>
O=C(CN1CCc2ccccc2C1)N1CCCC2(CC1)CN(c1cccc(Cl)c1)C(=O)O2 (stereo not drawn) [BDH_32295686]

>  <units-text>
%

>  <Inhibition percent>
0.75

$$$$
>  <compound>
O=C1CCC[C@H]2[C@@H](C[C@@H](c3cccc(C(F)(F)F)c3)N2C(=O)CCc2ccccc2)N1 [BDG_27570843]

>  <units-text>
%

>  <Inhibition percent>
0.77

$$$$
>  <compound>
Cc1cccc(Oc2cncc(C3CCCN(C(=O)c4ccnc(N5CCN(C)CC5)c4)C3)n2)c1 (stereo not drawn) [BDH_32358106]

>  <units-text>
%

>  <Inhibition percent>
0.42

$$$$

Give Inhibition percent for all compounds that follow.
1. CNCc1cc(NC)nc(C2CCCN2C(=O)c2cccc(Oc3ccccc3)c2)n1 (stereo not drawn) [BDE_23425118]
2. Nc1ncc(-c2cccc(C(F)(F)F)c2)c(C2CCCCN2C(=O)CCN2C(=O)CCNC2=O)n1 (stereo not drawn) [BDH_33628597]

## Result
[-0.41, 2.35]

meta.source: paper PMC9995496
